Items are presented alongside their recorded melting point.

[[record]]
molecule = "Cc1c(O)ccc2c(=O)c(-c3ccc(Cl)cc3)coc12"
metric = "melting point"
reported_value = "275 °C"

[[record]]
molecule = "COc1ccc(-c2nccc(N3CCN(c4c(C)c(C)c5c(c4C)CC(C)(C)O5)CC3)n2)cc1"
metric = "melting point"
reported_value = "240 to 242 °C"

[[record]]
molecule = "NC(=O)N(O)Cc1sccc1Sc1ccc(Br)cc1"
metric = "melting point"
reported_value = "124 to 126 °C"

[[record]]
molecule = "COC(=O)c1ccc(OCCNC(=O)C2Cc3ccccc3N2S(=O)(=O)c2ccc(-c3ccc(F)cc3)cc2)cc1Cl (stereo unspecified)"
metric = "melting point"
reported_value = "70 to 79 °C"

[[record]]
molecule = "CC(C)n1nc(-c2sc(NC(=O)c3ccccc3)nc2-c2ccccc2)ccc1=O"
metric = "melting point"
reported_value = "126 to 129 °C"

[[record]]
molecule = "O=C(Nc1nc(C(F)(F)F)co1)C1c2ccccc2Oc2ccccc21"
metric = "melting point"
reported_value = "222 °C"

[[record]]
molecule = "c1coc(-c2nnc(Sc3cnccn3)o2)c1"
metric = "melting point"
reported_value = "92 to 93 °C"

[[record]]
molecule = "COc1ccc(CCCC(=O)CCC(=O)O)cc1"
metric = "melting point"
reported_value = "88 to 89 °C"


Memo: CC(=O)NCC1CC(c2ccc(-n3ccc(C=O)c3)c(F)c2)=NO1 (single isomer, unassigned; (-)) , reported melting point: 155 to 156 °C

melting point for COc1ccc(S(=O)(=O)C(CCc2ccccc2)CC(=O)O)cc1OC (stereo unspecified) is 161 to 162 °C

get_value(item= CC1C(=O)N(C)C(=O)N(C)C1=O , readout=melting point) returns 83 to 85 °C

melting point in this record for COC(=O)c1cc(/C=N/O)ccc1[N+](=O)[O-] : 116 °C

The recorded melting point for entry CCCCC/C=C\C/C=C\CCCCCCCC(=O)Nc1cccc(N(CC(=O)O)CC(=O)O)c1 equals 135 to 140 °C

Lab note: measured melting point of O=C(c1cc(C(F)(F)F)ccc1Cl)c1cc(C(F)(F)F)ccc1Cl was 70 to 72 °C

Noted for O=C1CCN(Cc2ccc3ccccc3n2)CC1C(c1ccc(F)cc1)c1ccc(F)cc1 (stereo unspecified) : its melting point reads 188 to 189 °C

====

METRIC: melting point

[[record]]
compound = "O=C(CNC(=O)C(Cc1ccccc1)P(=O)(O)O)OCc1ccccc1 (stereo unspecified)"
metric = "melting point"
reported_value = "208 to 228 °C"


Value of measured melting point for the entry C=CCOc1ccc2ccc(N)nc2n1 : 138 °C

Per the record, O=c1c2ccc(Cl)cc2[nH]c2c(=O)n(-c3ccc(O)cc3)nc(O)c12 has melting point of 393 to 395 °C

Data point: O=C(O)COc1cccc2c1CCc1sc(SCc3ccc(-c4ccccc4)cc3)nc1-2 ; melting point = 198 to 200 °C

So, CC(C)NC1=NS(=O)(=O)c2ccc(CC(=O)O)cc2N1 ? Its melting point was 262 to 264 °C

Memo: C#Cc1cn(C2CC(OC(=O)C(C)(C)C)C(COC(=O)C(C)(C)C)O2)c(=O)[nH]c1=O (stereo unspecified) , reported melting point: 151 °C

Consider COc1ccc2c(c1)C=Cn1c(nnc1S(C)=O)C2 (stereo unspecified) . Its measured melting point is 241 to 242 °C

Sample COc1c(CC#N)c2c(c3c1OC(C)(C)C3)C(c1cccc(C(=O)NC(C)(C)C(N)=O)c1)=NC(C)(C)C2 ; melting point observed: 217 to 219 °C

Recorded melting point (compound O=C(O)CCC(=O)c1ccc(-n2cncn2)cc1 ): 234 to 235 °C

Sure, the documented melting point for CC(C)n1nc(-c2sc(Nc3ccccn3)nc2-c2ccccc2)ccc1=O is 194 to 195 °C

Reported melting point ( COc1cc(C)c(NCCO)cc1N ) = 148 °C

response.value for N#Cc1ccc(CC=O)cc1 (field: melting point) = 63 to 65 °C

melting point reported for this compound CCN1C(=O)C(C(=O)Nc2ccc(Cl)cc2Oc2ccc(Cl)cc2)C(=O)N(C)C1=S (stereo unspecified) : 250 to 251 °C

Documented melting point of O=C1O[C@H](C(Cl)(Cl)Cl)N2CCC[C@@]12Cc1ccccc1 : 75 to 77 °C

What the record says about N=C(O)c1cc(C(O)=Nc2ccc(O)cc2)c(C(=O)O)cc1C(=O)O : melting point is 300 °C

For record COC(=O)c1c(Cc2ccc(C(=O)NC3CCC(O)CC3)cc2)c(=O)c2ccc(Cl)cc2n1-c1ccccc1 (stereo unspecified) the listed melting point is 151 to 152 °C

// melting point lookup, compound = Oc1nc2c(Cl)nc3ccccc3c2n1CC1CCOCC1 , result: > 275 °C

In plain terms, CS(=O)(=O)N(CCI)N(S(C)(=O)=O)S(C)(=O)=O has a documented melting point of 136 to 138 °C

Nc1ccc(N)c(I)c1 yielded melting point of 95 to 99 °C

Input COc1ccc(C(NCCc2ccccc2)c2cccc(Nc3c(N)c(=O)c3=O)c2)cc1 (stereo unspecified) . Output melting point: 174 to 176 °C

Per the record, CS(=O)(=O)c1ccc(Nc2ccn(-c3ccccc3)n2)cc1 has melting point of 185 to 187 °C
